The reader will find reported melting point values listed item by item below.

molecule	test result
COc1cc(Cn2cnc3c(-c4ccco4)ncnc32)cc(OC)c1OC	195 to 196 °C
Cc1nc(C(=O)NCCN2CCOCC2)cc(-c2cccc([N+](=O)[O-])c2)c1C(C)O (stereo not drawn)	166 to 167 °C

// below: melting point requested for another molecule
In: Which melting point is reported for this molecule? "CC/C(=C(\c1ccc(/C=C/C(=O)O)cc1)c1ccc(OC(=O)c2ccno2)cc1)c1ccccc1"
Out: 141 to 142 °C

----------
The reader will find reported melting point values listed item by item below.

Known results for compounds:
compound	melting point
Cc1cc2c(cc1-c1ccc(C=O)s1)C(C)(C)CCC2(C)C	130 to 135 °C
O=S1(=O)NCN(CCF)c2cc(F)c(F)cc21	128 to 130 °C
CCCNC(=O)Nc1ccccc1C(=O)OCC	98 to 99 °C
Clc1nc2ccccc2nc1Nc1cccc2ccccc12	157 to 159 °C
COC(=O)[C@@H]1CCCN1S(=O)(=O)c1ccc(Cl)c(COc2cccc3cc(C(F)(F)F)c(C)nc23)c1Cl	165 to 167 °C

In: Which melting point is reported for this compound? "O=C1N(CCCCN2CCN(c3cn(-c4ccc(F)cc4)c4ccccc34)CC2)CSC12CCCCC2"
Out: 134 to 136 °C

In: Which melting point is reported for this compound? Cc1cccc(C(=O)NC2CN3CCC2CC3)c1C (racemic)
Out: 160 to 161 °C

In: Which melting point is reported for this compound? O=C1OC(Cl)(c2ccc(Cl)cc2)c2ccccc21 (centres undefined)
Out: 133 to 135 °C

In: Which melting point is reported for this compound? "N#Cc1cccc(C2=Nc3ccc(C#Cc4ccccc4F)cc3NC(=O)C2)c1"
Out: 213 to 214 °C

In: Which melting point is reported for this compound? NS(=O)(=O)c1cccc(NC(=O)NC2N=C(c3ccccc3F)c3ccccc3N(CC(=O)N3CC4CCC(CC4)C3)C2=O)c1 (racemic)
Out: 221 to 226 °C

In: Which melting point is reported for this compound? COc1ccc2c(c1)CC(NC(C)=O)CC2 (centres undefined)
Out: 105 to 108 °C

In: Which melting point is reported for this compound? CCC(C(=O)C(=O)O)c1ccccc1 (centres undefined)
Out: 62 to 68 °C

In: Which melting point is reported for this compound? "CCCN1Cc2c(Cl)nc(Cl)nc2N1"
Out: 80 to 84 °C

In: Which melting point is reported for this compound? "COc1ccc(C(=O)Nc2cccc(C3(C#N)CCCC3)c2)cc1OC"
Out: 59 to 61 °C

----------
measure: melting point

compound	melting point
OCCCc1cn(-c2ccc(C(F)(F)F)cn2)nc1-c1ccccc1	99 to 100 °C
O=C(O)C=CC(=O)NCCCCCCCCCCCCCCCCCCCC(=O)O	146 to 148 °C
C/C(=C\c1ccc(OC(C)C)cc1Oc1ncc(C(F)(F)F)cc1Cl)C(=O)NS(=O)(=O)NCC1CCCO1 (stereo not given)	125 to 126 °C
CC(=O)N1CCN(CCCOc2ccc(N3CCN(c4ccc5nnc(C(F)(F)F)n5n4)CC3)cc2)CC1	162 °C
O=[N+]([O-])c1ccc(Cl)cc1NC1Cc2ccccc2C1	108 °C
CC(=O)N(CCC1CCCCN1CCC(C(N)=O)c1ccccc1Cl)C(C)C (stereo not given)	140 to 141 °C

In: Which melting point is reported for this compound? CCCCCCCCCCCCCCCCCCC(=O)Nc1ccn(C2OC(CO)C(O)C2O)c(=O)n1 (stereo not given)
Out: 139 to 142 °C

In: Which melting point is reported for this compound? COc1cccc(C=CC(=O)NC2CCNC(=O)C2)c1OC (stereo not given)
Out: 164 to 166 °C

In: Which melting point is reported for this compound? "COC(=O)c1nc(-c2ccc(Cl)c(OC)c2F)c(F)c(N)c1Cl"
Out: 169 to 170 °C

In: Which melting point is reported for this compound? "COc1ccc2c(c1)c(SC)c(C(N)=O)n2C"
Out: 204 to 206 °C
